TESTED_SYSTEM: Thioredoxin reductase 1, cytoplasmic (Rattus norvegicus)
TEST_SUMMARY: qHTS Assay for Inhibitors of Mammalian Selenoprotein Thioredoxin Reductase 1 (TrxR1): qHTS; also: nearly all actives have a fitted effect of over 65% in size
CONDITION_SET: recombinant rTrxR1, NADPH fluorescence consumption, selenite substrate; series mostly up to 114 µM
The whole screen tested about 390,000 compounds, of which about 4,000 (1%) were called active. Not shown: some 4% with an inconclusive outcome. Calls follow the shape of the dose curve; as a rule, active = well fitted inhibition curve with a large enough effect; inconclusive = small, poorly fitted or top-dose-only effect; inactive = no such curve, though single readings can be large or run the other way. The sample as a whole holds a higher share of actives than the screen did.
Classes to choose from: active, inactive

Past entries and their recorded results:
compound="C/C=C(\\C)C(=O)N1CC2(CC(c3cccc(NC(=O)CCCCC)c3)=NO2)C[C@@H]1C(N)=O (stereo partly specified)" category_label=inactive
compound=NC(=O)c1ccsc1NC(=O)c1ccco1 category_label=active
compound="CC(/C=C/c1ccccc1)=N\\NC(=O)C1CC1(C)c1ccccc1 (stereo unspecified)" category_label=inactive
compound="CCOc1ccc(C(NC(=O)c2cc(OC)c(OC)c(OC)c2)c2cc(Cl)c3cccnc3c2O)cc1 (stereo unspecified)" category_label=inactive
compound=CCc1nn(CC(=O)Nc2cc(C)cc(C)c2)c(=O)c2cc3sccc3n12 category_label=inactive
compound="O=C(NCc1cccnc1)C(=O)NCC(c1cccnc1)N1CCN(c2ccccc2)CC1 (stereo unspecified)" category_label=inactive
compound=C=C(Br)CN1CCN(CC(=C)Br)CC1 category_label=active
compound="Cc1ccccc1-n1nc(C)c2c1N=C1C(Cl)=CC(Cl)=CN1C2c1ccc(C(=O)O)cc1 (stereo unspecified)" category_label=active

Asked: // outcome(item) with item = CCOC(=O)N1CCN(C(c2cccnc2)c2ccc3cccnc3c2O)CC1 (stereo unspecified)
Given back: active

Asked: // outcome(item) with item = CCn1c(CNC(=O)c2ccco2)nnc1SCC(=O)Nc1cccc(F)c1
Given back: inactive

Asked: // outcome(item) with item = CC1CC(=NNC(=O)C2COc3ccccc3O2)CC(C)(C)C1 (stereo unspecified)
Given back: inactive

Asked: // outcome(item) with item = C[n+]1ccccc1C1CCCC/C1=N\Nc1ccc([N+](=O)[O-])cc1[N+](=O)[O-] (stereo unspecified)
Given back: inactive

Asked: // outcome(item) with item = CC/C=C/C(=O)N1CC2(CC(c3cccc(NC(=O)CC)c3)=NO2)C[C@H]1C(N)=O (stereo partly specified)
Given back: inactive

Asked: // outcome(item) with item = COc1cc(C(=O)N(Cc2ccc(C(C)C)cc2)C2CCS(=O)(=O)C2)cc(OC)c1OC (stereo unspecified)
Given back: inactive

Asked: // outcome(item) with item = Cc1ccccc1-n1nc(C)c2cc(C(=O)NC3CC3)sc21
Given back: inactive

Asked: // outcome(item) with item = Cc1ccc(NC(=O)C(=O)NCC(c2cccnc2)N2CCOCC2)cc1 (stereo unspecified)
Given back: inactive

Asked: // outcome(item) with item = O=C(CSc1ccc(-c2ccco2)nn1)Nc1cccc(F)c1
Given back: active

Asked: // outcome(item) with item = C/C=C\C=C\C(=O)N1CC2(CC(c3cccc(NC(=O)/C(C)=C\C)c3)=NO2)C[C@H]1C(N)=O (stereo partly specified)
Given back: active

Asked: // outcome(item) with item = Cc1ccc(C)c(NC(=O)Cn2ccn(-c3ccc(F)cc3)c(=O)c2=O)c1
Given back: inactive

Asked: // outcome(item) with item = CC(/C=C/c1ccco1)=N/NC(=O)C1COc2ccccc2O1 (stereo unspecified)
Given back: active

Asked: // outcome(item) with item = C=CC1(C)CC(=O)C2(O)C(C)(O1)C(OC(C)=O)C(O)C1C(C)(C)CCC(O)C12C (stereo unspecified)
Given back: inactive

These entries and their values trace back to PubChem BioAssay AID588453.
